Tested on: Arabidopsis thaliana
Protocol description: Growth inhibition of Arabidopsis thaliana var. Columbia assessed as stunting after 9 days by agarose-based test
Type: functional, organism-based
The source made the active and inactive calls. The rule behind the calls is not given here.
Readout type: growth inhibition (GI)

1. O=C1N[C@@H](Cc2c[nH]c3cccc([N+](=O)[O-])c23)C(=O)N[C@H]1Cc1ccccc1 [DES-N-METHYLTHAXTOMIN C] | Active
2. CN1C(=O)[C@](O)(Cc2ccccc2O)N(C)C(=O)[C@@H]1Cc1c[nH]c2cccc([N+](=O)[O-])c12 [THAXTOMIN A O-ISOMER] | Active
3. CN1C(=O)[C@](O)(Cc2ccc(O)cc2)N(C)C(=O)[C@@H]1Cc1c[nH]c2cccc([N+](=O)[O-])c12 [THAXTOMIN A P-ISOMER] | Active
4. CN1C(=O)[C@](O)(Cc2ccccc2)NC(=O)[C@@H]1Cc1c[nH]c2cccc([N+](=O)[O-])c12 [HYDROXYTHAXTOMIN C] | Active
5. CN1C(=O)[C@](O)(Cc2cccc(O)c2)N(C)C(=O)[C@@H]1Cc1c[nH]c2cccc([N+](=O)[O-])c12 [THAXTOMIN A] | Active
6. CN1C(=O)[C@](O)(Cc2ccccc2)N(C)C(=O)[C@@H]1Cc1c[nH]c2cccc([N+](=O)[O-])c12 [THAXTOMIN B] | Active
7. CN1C(=O)[C@](O)(Cc2ccc(O)c(O)c2)N(C)C(=O)[C@@H]1Cc1c[nH]c2cccc([N+](=O)[O-])c12 [HYDROXYTHAXTOMIN A] | Active
8. CN1C(=O)[C@H](Cc2ccccc2)NC(=O)[C@@H]1Cc1c[nH]c2cccc([N+](=O)[O-])c12 [THAXTOMIN C] | Active

---

System: Helianthus annuus
Protocol description: Herbicidal activity against Helianthus annuus (sunflower) assessed as visual injury at 10 ug/seedling applied to meristem after 1 week relative to control
Type: functional
Readout type: Activity (%)

1) CN1C(=O)[C@H](Cc2ccccc2)NC(=O)[C@@H]1Cc1c[nH]c2cccc([N+](=O)[O-])c12 [THAXTOMIN C] | 30
2) CN1C(=O)[C@](O)(Cc2ccccc2)NC(=O)[C@@H]1Cc1c[nH]c2cccc([N+](=O)[O-])c12 [HYDROXYTHAXTOMIN C] | 95
3) O=C1N[C@@H](Cc2c[nH]c3cccc([N+](=O)[O-])c23)C(=O)N[C@H]1Cc1ccccc1 [DES-N-METHYLTHAXTOMIN C] | 0
4) CN1C(=O)[C@](O)(Cc2cccc(O)c2)N(C)C(=O)[C@@H]1Cc1c[nH]c2cccc([N+](=O)[O-])c12 [THAXTOMIN A] | 90

---

Test system: Agrostis stolonifera var. palustris
Protocol description: Herbicidal activity against Agrostis stolonifera var. palustris after 9 days by agarose-based test
Format: functional
Readout type: I50 (ppb)

1. CN1C(=O)[C@](O)(Cc2ccccc2O)N(C)C(=O)[C@@H]1Cc1c[nH]c2cccc([N+](=O)[O-])c12 [THAXTOMIN A O-ISOMER] | 90
2. CN1C(=O)[C@](O)(Cc2ccc(O)c(O)c2)N(C)C(=O)[C@@H]1Cc1c[nH]c2cccc([N+](=O)[O-])c12 [HYDROXYTHAXTOMIN A] | 40
3. O=C1N[C@@H](Cc2c[nH]c3cccc([N+](=O)[O-])c23)C(=O)N[C@H]1Cc1ccccc1 [DES-N-METHYLTHAXTOMIN C] | 600

---

Overview of reported Activity across a group of molecules:
Tested on: Helianthus annuus
Protocol description: Herbicidal activity against Helianthus annuus (sunflower) assessed as visual injury at 100 ug/seedling applied to meristem after 1 week relative to control
Format: functional
Readout type: Activity (%)

1. CN1C(=O)[C@](O)(Cc2cccc(O)c2)N(C)C(=O)[C@@H]1Cc1c[nH]c2cccc([N+](=O)[O-])c12 | 90
2. CN1C(=O)[C@H](Cc2ccccc2)NC(=O)[C@@H]1Cc1c[nH]c2cccc([N+](=O)[O-])c12 | 75
3. O=C1N[C@@H](Cc2c[nH]c3cccc([N+](=O)[O-])c23)C(=O)N[C@H]1Cc1ccccc1 | 50
4. CN1C(=O)[C@](O)(Cc2ccccc2)NC(=O)[C@@H]1Cc1c[nH]c2cccc([N+](=O)[O-])c12 [HYDROXYTHAXTOMIN C] | 100

---

Test system: Abutilon theophrasti
Protocol description: Herbicidal activity against Abutilon theophrasti (velvetleaf) assessed as visual injury at 100 ug/seedling applied to meristem after 1 week relative to control
Type: functional
Overview of reported Activity across a group of compounds:
Readout type: Activity (%)

1. O=C1N[C@@H](Cc2c[nH]c3cccc([N+](=O)[O-])c23)C(=O)N[C@H]1Cc1ccccc1 | 10
2. CN1C(=O)[C@](O)(Cc2cccc(O)c2)N(C)C(=O)[C@@H]1Cc1c[nH]c2cccc([N+](=O)[O-])c12 | 80
3. CN1C(=O)[C@H](Cc2ccccc2)NC(=O)[C@@H]1Cc1c[nH]c2cccc([N+](=O)[O-])c12 | 50
4. CN1C(=O)[C@](O)(Cc2ccccc2)NC(=O)[C@@H]1Cc1c[nH]c2cccc([N+](=O)[O-])c12 [HYDROXYTHAXTOMIN C] | 70

---

Test system: Arabidopsis thaliana
Protocol description: Growth inhibition of Arabidopsis thaliana var. Columbia after 9 days by agarose-based test
Assay type: functional
Readout type: I50 (ppb)

1) O=C1N[C@@H](Cc2c[nH]c3cccc([N+](=O)[O-])c23)C(=O)N[C@H]1Cc1ccccc1 | 400
2) CN1C(=O)[C@](O)(Cc2ccccc2O)N(C)C(=O)[C@@H]1Cc1c[nH]c2cccc([N+](=O)[O-])c12 [THAXTOMIN A O-ISOMER] | 100
3) CN1C(=O)[C@](O)(Cc2ccc(O)cc2)N(C)C(=O)[C@@H]1Cc1c[nH]c2cccc([N+](=O)[O-])c12 [THAXTOMIN A P-ISOMER] | 190
4) CN1C(=O)[C@](O)(Cc2ccccc2)N(C)C(=O)[C@@H]1Cc1c[nH]c2cccc([N+](=O)[O-])c12 | 28
5) CN1C(=O)[C@H](Cc2ccccc2)NC(=O)[C@@H]1Cc1c[nH]c2cccc([N+](=O)[O-])c12 | 50
6) CN1C(=O)[C@](O)(Cc2cccc(O)c2)N(C)C(=O)[C@@H]1Cc1c[nH]c2cccc([N+](=O)[O-])c12 | 10
7) CN1C(=O)[C@](O)(Cc2ccc(O)c(O)c2)N(C)C(=O)[C@@H]1Cc1c[nH]c2cccc([N+](=O)[O-])c12 [HYDROXYTHAXTOMIN A] | 10

---

Overview of reported Activity across a group of compounds:
Tested on: Abutilon theophrasti
Protocol description: Herbicidal activity against Abutilon theophrasti (velvetleaf) assessed as visual injury at 10 ug/seedling applied to meristem after 1 week relative to control
Format: functional
Readout type: Activity

1) CN1C(=O)[C@H](Cc2ccccc2)NC(=O)[C@@H]1Cc1c[nH]c2cccc([N+](=O)[O-])c12 | 0%
2) CN1C(=O)[C@](O)(Cc2ccccc2)NC(=O)[C@@H]1Cc1c[nH]c2cccc([N+](=O)[O-])c12 [HYDROXYTHAXTOMIN C] | 20%
3) O=C1N[C@@H](Cc2c[nH]c3cccc([N+](=O)[O-])c23)C(=O)N[C@H]1Cc1ccccc1 | 0%
4) CN1C(=O)[C@](O)(Cc2cccc(O)c2)N(C)C(=O)[C@@H]1Cc1c[nH]c2cccc([N+](=O)[O-])c12 | 75%
